- TARGET_DESC: T1, recombinant mouse DLL4 (C-terminally His-tagged extracellular domain, R&D Systems) (mouse, UniProt Q9JI71 27-532)
- T1 construct: extracellular domain; also called rmDLL4; mDLL4
- TEST_DETAILS: ProteOn off-rate screen, periplasmic extract, coated mouse DLL4
READOUT_KIND: koff (s⁻¹)
Answer in s⁻¹, number only, no unit symbol.

Ask: # input binder: DLLBII130F06 (VHH, not shown: small tags and cut ends) VHH: EVQLVESGGGLVQAGGSLRLSCAASGRTFSSYAMAWYRQAPGKEREYVAAIRWSGGTAYYADSVQGRFTISRDNAKNTVYLQMNSLKPEDTAVYYCANRAPDTRLAPYEYDYWGQGTQVTVSS ; wanted: its koff
Reply: 0.00026

Ask: # input binder: DLLBII130B04 (VHH) VHH: EVQLVESGGGLVQAGGSLRLSCAASGRTFSSYAMAWFRQAPGKEREYVAAIRWSGGTAYYADSVQGRFTISRDNAKNTVYLQMNSLKPEDTAVYYCANRAPDTRLRPYLYDHWGQGTQVTVSS ; wanted: its koff
Reply: 0.00029
